src = patent US20230002503A1

EC50 for assorted binders
Biological target: T1, monkey CAIX on CHO cells (CHO-cyCAIX) (monkey)
T1 construct: whole, on cells
Assay: flow cytometry on CHO-cyCAIX cells
measuredEndpoint: EC50

* H-YE-32 (Fc fusion, also called CAIX nanobody H-YE-32; not shown: human IgG1 Fc segment) QVQLQESGGGLVQPGGSLRLSCAASGGARNIFSFAAMAWYRQAPGKQRELVAVITSAGGTQYSSSVKGRFTISRDNAKKTVLLQMNSLKPEDTAVYYCNADYYQDYWGQGTQVTVSS | 9.42 nM
* Hu-H-YE-32-D5 (Fc fusion, T0013 prints the label as Hu-H-YB-32-D5; also called Hu-H-YB-32-D5; humanized antibody from H-YE-32; not shown: human IgG1 Fc segment) QVQLVESGGGLVQPGGSLRLSCSASGGARNIFSFAAMHWYRQAPGKGLELVAVITSAGGTYYADSVKGRFTISRDNSKKTLYLQMNSLRAEDTAVYYCNADYYQDYWGQGTQVTVSS | 22.7 nM
